Cited source for all entries: patent US20220177583A1

Target: T1, human CLDN6, endogenously expressed on cancer cell lines (human, UniProt P56747 1-220)
T1 construct: also called Endogenous CLDN6+; CLDN6 on ARK2, OVCA429, UMUC4 cells
T1 sequence: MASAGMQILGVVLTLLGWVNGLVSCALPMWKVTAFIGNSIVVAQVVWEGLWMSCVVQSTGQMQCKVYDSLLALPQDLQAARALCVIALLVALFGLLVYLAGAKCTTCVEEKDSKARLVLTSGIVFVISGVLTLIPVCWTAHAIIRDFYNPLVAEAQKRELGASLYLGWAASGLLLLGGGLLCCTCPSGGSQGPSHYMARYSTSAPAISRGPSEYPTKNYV
Test: FACS, ARK2 cells, 0.3 ug Ab
Quantity measured: FACS signal

{"columns": ["Binder", "Quantity measured", "Value"],
 "data": [
  ["AB4-7 (antibody, V domains shown, Humanized; also called humanized AB 4-7) VH: QVQLVQSGAEVKKPGASVKMSCKASGYTFTSYTMHWIRQAPGQGQEWIGYINPSSTYTHYAQKFQGRATLTADKSTSTAYMELSSLRSEDTAVYYCSRGELGGFAYWGQGTLVTVSS VL: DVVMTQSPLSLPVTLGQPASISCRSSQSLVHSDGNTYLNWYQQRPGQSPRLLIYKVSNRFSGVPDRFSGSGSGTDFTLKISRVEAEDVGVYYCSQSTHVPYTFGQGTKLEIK", "FACS signal", 2770],
  ["AB4-3 (antibody, V domains shown, Humanized; also called humanized AB 4-3) VH: QVQLVQSGAEVKKPGASVKVSCKASGYTFTSYTMHWVRQAPGQGLEWMGYINPSSTYTHYAQKFQGRVTMTADTSTSTVYMELSSLRSEDTAVYYCSRGELGGFAYWGQGTLVTVSS VL: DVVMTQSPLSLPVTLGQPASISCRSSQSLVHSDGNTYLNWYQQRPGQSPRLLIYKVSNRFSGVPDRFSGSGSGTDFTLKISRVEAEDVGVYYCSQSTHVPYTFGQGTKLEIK", "FACS signal", 1190]
]}
